# target of assay: Human 5HT1A receptor (Homo sapiens)
# Construct: expressed in transfected cells; host or cells: L929 cells (stably transfected)
# Sequence (P08908 1-422): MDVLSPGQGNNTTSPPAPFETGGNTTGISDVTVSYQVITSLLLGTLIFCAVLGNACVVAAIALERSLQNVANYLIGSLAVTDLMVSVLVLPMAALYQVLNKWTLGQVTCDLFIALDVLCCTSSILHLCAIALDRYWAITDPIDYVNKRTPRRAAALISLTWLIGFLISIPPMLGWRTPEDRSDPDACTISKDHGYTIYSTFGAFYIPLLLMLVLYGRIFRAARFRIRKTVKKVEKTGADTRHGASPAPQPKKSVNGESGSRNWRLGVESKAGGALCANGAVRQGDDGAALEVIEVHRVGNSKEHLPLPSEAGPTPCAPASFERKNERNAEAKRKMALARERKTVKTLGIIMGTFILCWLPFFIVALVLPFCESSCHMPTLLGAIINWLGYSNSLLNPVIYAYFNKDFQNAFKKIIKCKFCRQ
# experimental protocol: Binding experiment for 5-HT1A receptor ([3H]8OHDPAT)
# test context: transfected L929 cell membranes, [3H]8OHDPAT; read-out: pIC50 5-HT1A (converted)
Please respond with reported IC50 for every item in the list.
Please format your answer as a value with the unit trailing.

Recorded IC50, per entry:
molecule="COc1cc2c(cc1OC)C1=NOC(CN3CCC(c4c[nH]c5ccc(C)cc45)CC3)C1CO2 (racemic)" parameter_measured=IC50 reported="3.16 nM"
molecule="COc1cc2c(cc1OC)C1=NOC(CN3CCC(c4coc5cc(F)ccc45)CC3)C1CO2 (stereo not shown)" parameter_measured=IC50 reported="15.8 nM"
molecule="COc1cc2c(cc1OC)C1=NOC(CN3CC=C(c4c[nH]c5ccc(-c6ccccc6)cc45)CC3)C1CO2 (racemic)" parameter_measured=IC50 reported="25.1 nM"

Now examine the next entry.
Can you look up the measured IC50 of CCNC(=O)Nc1ccc2[nH]cc(C3=CCN(CC4ON=C5c6cc(OC)c(OC)cc6OCC54)CC3)c2c1 (racemic) for me?
7.94 nM

* * *

# target of assay: Human Dopamine D3 receptor (Homo sapiens)
# Construct: expressed in transfected cells; host or cells: CHO cells
# Sequence (P35462 whole entry): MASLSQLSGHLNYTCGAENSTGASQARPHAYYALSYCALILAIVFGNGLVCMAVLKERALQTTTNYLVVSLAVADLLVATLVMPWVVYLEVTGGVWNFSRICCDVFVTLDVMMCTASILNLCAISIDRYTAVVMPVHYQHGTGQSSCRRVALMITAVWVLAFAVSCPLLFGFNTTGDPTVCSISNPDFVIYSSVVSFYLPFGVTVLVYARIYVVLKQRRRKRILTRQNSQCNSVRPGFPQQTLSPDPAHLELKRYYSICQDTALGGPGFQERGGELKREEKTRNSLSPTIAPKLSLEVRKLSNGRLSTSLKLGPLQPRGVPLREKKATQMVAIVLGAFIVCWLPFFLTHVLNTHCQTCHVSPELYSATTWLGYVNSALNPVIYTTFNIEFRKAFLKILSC
# experimental protocol: Binding experiment for dopamine D3 receptor ([125I]Iodosulpride)
# test context: transfected CHO cell membranes
# Experimental: The interaction of the compounds of Formula (I) with dopamine-receptors, h5HT-transporter and h5HT1A receptor was assessed in in vitro radioligand binding experiments. […] When equilibrium of binding is reached, the receptor bound radioactivity is separated from the non-bound radioactivity, and the receptor- or transporter-bound activity is counted. The interaction of the test compounds with the receptor is assessed in competition binding experiments. […]
parameter measured: pIC50 D3
One number for each entry.

Examples with their reported pIC50 D3 follow.
compound="Fc1ccc2[nH]cc(C3=CCN(CC4ON=C5c6cc7c(cc6OCC54)OCCO7)CC3)c2c1 (single isomer, unassigned) [Compound 28]" parameter_measured="pIC50 D3" reported=6.2
compound="COc1cc2c(cc1OC)C1=NOC(CN3CC=C(c4c[nH]c5ccccc45)CC3)C1CO2 (single isomer, unassigned) [Compound 14]" parameter_measured="pIC50 D3" reported=6.5
compound="COc1cc2c(cc1OC)C1=NOC(CN3CCC(c4c[nH]c5ccc(C#N)cc45)CC3)C1CO2 (racemic) [Compound 24]" parameter_measured="pIC50 D3" reported=6.9
compound="COc1cc2c(cc1OC)C1=NOC(CN3CC=C(c4c[nH]c5ccc([N+](=O)[O-])cc45)CC3)C1CO2 (racemic) [Compound 19]" parameter_measured="pIC50 D3" reported=6.5
compound="COc1cc2c(cc1OC)C1=NOC(CN3CCC(c4c[nH]c5ccc(F)cc45)CC3)C1CO2 (racemic) [Compound 2]" parameter_measured="pIC50 D3" reported=7.2
compound="COc1cc2c(cc1OC)C1=NOC(CN3CC=C(c4c[nH]c5ccc(C#N)cc45)CC3)C1CO2 (racemic) [Compound 23]" parameter_measured="pIC50 D3" reported=6.8
compound="COc1cc2c(cc1OC)C1=NOC(CN3CCC(c4c[nH]c5ccc(F)cc45)CC3)C1CO2 (single isomer, unassigned) [Compound 15]" parameter_measured="pIC50 D3" reported=6.4
compound="Fc1ccc2[nH]cc(C3CCN(CC4ON=C5c6cc7c(cc6OCC54)OCCO7)CC3)c2c1 (single isomer, unassigned) [Compound 29]" parameter_measured="pIC50 D3" reported=6.5

Kindly give each listed record's pIC50 D3.
1. COc1cc2c(cc1OC)C1=NOC(CN3CC=C(c4c[nH]c5ccc(Cl)cc45)CC3)C1CO2 (racemic) [Compound 25]
2. COc1cc2c(cc1OC)C1=NOC(CN3CC=C(c4c[nH]c5ccc(C)cc45)CC3)C1CO2 (racemic) [Compound 18]
3. COc1cc2c(cc1OC)C1=NOC(CN3CCC(c4c[nH]c5c(F)cccc45)CC3)C1CO2 (racemic) [Compound 30]
4. COc1cc2c(cc1OC)C1=NOC(CN3CC=C(c4c[nH]c5cccc(F)c45)CC3)C1CO2 (single isomer, unassigned) [Compound 13]
5. COc1cc2c(cc1OC)C1=NOC(CN3CC=C(c4c[nH]c5ccccc45)CC3)C1CO2 (single isomer, unassigned) [Compound 6]

1. 6.9
2. 6.4
3. 6.4
4. 6.8
5. 6.2
